B1: Hairpin Ribozyme (parent)
chain: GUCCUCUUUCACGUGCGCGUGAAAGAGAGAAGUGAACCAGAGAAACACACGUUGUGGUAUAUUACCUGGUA

Variants of: B1
assay overview: self-cleavage, relative activity (ratio to wild type); higher = more cleavage; co-transcriptional
property name: self-cleavage
One number for each entry.

Worked examples, 2 variants total:
INSERT INTO measurements (residue_sequence, property_name, reported_measurement) VALUES
  ('GUCCUCUUUCACGUGCGCGUGAAAGAGAGAAGUGAACCAGAGCAACACACGAUGUGGUAUAUUACCUGGUA [A43C U52A]', 'self-cleavage', 0.136),
  ('GUCCUCAUUCACGUGCGCGUGAAAGAGAGAAGUGAACCAGAGAAACAGACGUUGUGGUAUAUUACCUGGUA [U7A C48G]', 'self-cleavage', 0.0789);

Give one value of self-cleavage per listed variant.
1. GUCCUCUUUCACGUGCACGUGAAAGAGAGAAGUGAACCAGAGAAACACACGUUGUGGUAUAUUAUCUGGUA [G17A C65U]
2. GUCCUCUUUCACGUGCGCGUGAAAGAGAGAAGUGAACCAGAGAAACACACGUUGUGGAAUUUUACCUGGUA [U58A A61U]
3. GUCCUCUUUCACGUGCGCGUGAAAGAGAGAAGUGAACCAGAGAAACGCACGUUGUGGUAUAUCACCUGGUA [A47G U63C]
4. AUCCUCUUUCACGUGCGCGUGAAAGAGAGAAGUGAACCAGAGAACCACACGUUGUGGUAUAUUACCUGGUA [G1A A45C]

[reply]
0.31
0.216
0.248
0.0307

Give one value of self-cleavage per listed variant.
1. GUCCUCUUUCACGUGCGCGUGAAAGAGACAAGUGAACCAGAGAAACACACGUUGUGGUAUAUUUCCUGGUA [G29C A64U]
2. GUCCUCUUUCACGUGCGCGUGAAAGAGAGAAGUGAACCAGAGAAACACGCGUUUUGGUAUAUUACCUGGUA [A49G G54U]
3. GUCCUCUUUCUCGUGCGCGAGAAAGAGAGAAGUGAACCAGAGAAACACACGUUGUGGUAUAUUACCUGGUA [A11U U20A]
4. GUCCUCUUUCACGUGCGCGUGAAAGAGAGAAGUGAACCAGAGAAACACACGUUGUGGUAUAUCACCUGAUA [U63C G69A]
5. GUCCUCUUUCACGUGCGCGUGAAAGAGAGAAGUGAACCAGAGAAACACACGGUGUGGUGUAUUACCUGGUA [U52G A59G]
6. GUGCUCUUUCCCGUGCGCGUGAAAGAGAGAAGUGAACCAGAGAAACACACGUUGUGGUAUAUUACCUGGUA [C3G A11C]
7. GUCCUCUUUCACGUGCGCGUGAAAGAGAGUAGUGAACCAGAGAAACACACGUUGUGAUAUAUUACCUGGUA [A30U G57A]

[reply]
0.192
0.541
0.874
0.216
0.25
0.137
0.0986

Give one value of self-cleavage per listed variant.
1. GUCCUCUUUCGCGUGCGCGUGAAUGAGAGAAGUGAACCAGAGAAACACACGUUGUGGUAUAUUACCUGGUA [A11G A24U]
2. GUCCUCUUUCACGUGCGCGUGAAACAGAGAAGUGAACCAGAGAAACACACGUUGUGGUAUAUUACAUGGUA [G25C C66A]
3. GUCCUCUUUCACGUGCGCGUGAAAGGGAGUAGUGAACCAGAGAAACACACGUUGUGGUAUAUUACCUGGUA [A26G A30U]
4. GUCCUCAUUCACGUGCGCGUGAAAGAGAGAAGUGAACCAGAGAAACACACGUUGUGGUAUGUUACCUGGUA [U7A A61G]

[reply]
1. 0.968
2. 0.133
3. 0.108
4. 0.186

Give one value of self-cleavage per listed variant.
1. GCCCUCUUUCACGUGCGCGUGAAAGAGAGAAGUGAACCAGAGAAACACACGUUGUCGUAUAUUACCUGGUA [U2C G56C]
2. GUACUCUUUCACGUGCGCGUGAAAGAGAGAAGUGAACCAGAGAAACACACGUUGUGGUAUAUUACCUGGUG [C3A A71G]
3. GUCCUCCUUCACGUGCGCGUGAAAGAGACAAGUGAACCAGAGAAACACACGUUGUGGUAUAUUACCUGGUA [U7C G29C]
4. GUCCUCUUUCACGUGCGCGUGAAAGAGAGAAGUGAACCAGAGAAACACACGUUGUGGUAUAUUAACUAGUA [C65A G68A]
5. GUCCUCUUUCACGUGCGCGUGAAAGAGAGAAGUGAACCACAGAAACACACCUUGUGGUAUAUUACCUGGUA [G40C G51C]

[reply]
0.166
0.715
0.131
0.378
0.127
